Target: Avi-KRAS G12D (1-169) GppNHp/RAF1 RBD-3xFLAG (52-151) (Homo sapiens, UniProt P01116, G12D)
Construct: Avi-KRAS G12D (1-169)
Sequence (P01116 1-169 isoform P01116-2 G12D): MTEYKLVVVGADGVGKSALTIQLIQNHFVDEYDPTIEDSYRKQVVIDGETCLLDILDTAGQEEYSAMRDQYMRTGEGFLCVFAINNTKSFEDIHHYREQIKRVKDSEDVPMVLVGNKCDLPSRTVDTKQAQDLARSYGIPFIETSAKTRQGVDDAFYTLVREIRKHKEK
Assay: Raf1-KRAS G12D-GppNHP disruption HTRF assay (Biological Example 1)
Assay type: binding
Settings: KRAS G12D, GppNHp-loaded; Table 11
Procedure: A protein:protein interaction (PPI) Homogeneous Time Resolved Fluorescence (HTRF) assay was used to determine the effectiveness of compounds of the present disclosure in disrupting KRAS protein and effector RAF1 binding. The assay buffer included: 50 mM Tris pH 7.5, 100 mM NaCl, 5 mM MgCl2, 0.1% BSA, 0.01% Tween, and 10% DMSO. The bead buffer included: 50 mM Tris pH 7.5, and 0.01% Tween 20. […] Data was reported as percentage of activity, with DMSO as 100%. Data was plotted and analyzed using Prism 8.
Recorded measurements of IC50, one per entry
Measurement Type: IC50

Compound	Target	Meas Value
N#Cc1c(N)sc2c(F)ccc(-c3c(C(F)(F)F)cc4c(N5CCC(F)(F)CC5)nc(OC[C@@]56CCCN5C[C@H](F)C6)nc4c3F)c12 [Compound 150]	Avi-KRAS G12D (1-169) GppNHp/RAF1 RBD-3xFLAG (52-151) (Homo sapiens, UniProt P01116, G12D)	100 to 1000 nM
CCN(CCCO)c1nc(OC[C@@]23CCCN2C[C@H](F)C3)nc2c(F)c(-c3ccc(F)c4sc(N)c(C#N)c34)c(C(F)(F)F)cc12 [Compound 175]	Avi-KRAS G12D (1-169) GppNHp/RAF1 RBD-3xFLAG (52-151) (Homo sapiens, UniProt P01116, G12D)	100 to 1000 nM
CN(c1nc(OC[C@@]23CCCN2C[C@H](F)C3)nc2c(F)c(-c3ccc(F)c4sc(N)c(C#N)c34)c(C(F)(F)F)cc12)[C@@H]1CCN(C(=O)CC#N)C1 (atropisomer, axis not shown) [Compound 102]	Avi-KRAS G12D (1-169) GppNHp/RAF1 RBD-3xFLAG (52-151) (Homo sapiens, UniProt P01116, G12D)	100 to 1000 nM
CC(C)(O)[C@H]1CCN1c1nc(OC[C@@]23CCCN2C[C@H](F)C3)nc2c(F)c(-c3ccc(F)c4sc(N)c(C#N)c34)c(C(F)(F)F)cc12 [Compound 269]	Avi-KRAS G12D (1-169) GppNHp/RAF1 RBD-3xFLAG (52-151) (Homo sapiens, UniProt P01116, G12D)	100 to 1000 nM
N#Cc1c(N)sc2c(F)ccc(-c3c(C(F)(F)F)cc4c(N5CC6(CC6)C5)nc(OC[C@@]56CCCN5C[C@H](F)C6)nc4c3F)c12 [Compound 204]	Avi-KRAS G12D (1-169) GppNHp/RAF1 RBD-3xFLAG (52-151) (Homo sapiens, UniProt P01116, G12D)	1000 to 10000 nM
C[C@H]1CN(c2nc(OC[C@@]34CCCN3C[C@H](F)C4)nc3c(F)c(-c4ccc(F)c5sc(N)c(C#N)c45)c(C(F)(F)F)cc23)CCO1 [Compound 142]	Avi-KRAS G12D (1-169) GppNHp/RAF1 RBD-3xFLAG (52-151) (Homo sapiens, UniProt P01116, G12D)	100 to 1000 nM
CN(c1nc(OC[C@@]23CCCN2C[C@H](F)C3)nc2c(F)c(-c3ccc(F)c4sc(N)c(C#N)c34)c(C(F)(F)F)cc12)[C@H]1C[C@@H](O)C1 [Compound 19]	Avi-KRAS G12D (1-169) GppNHp/RAF1 RBD-3xFLAG (52-151) (Homo sapiens, UniProt P01116, G12D)	< 100 nM
N#Cc1c(N)sc2c(F)ccc(-c3c(C(F)(F)F)cc4c(N5CC[C@@H]5CO)nc(OC[C@@]56CCCN5C[C@H](F)C6)nc4c3F)c12 [Compound 168]	Avi-KRAS G12D (1-169) GppNHp/RAF1 RBD-3xFLAG (52-151) (Homo sapiens, UniProt P01116, G12D)	< 100 nM
N#Cc1c(N)sc2c(F)ccc(-c3c(C(F)(F)F)cc4c(N5CC6(CC(O)C6)C5)nc(OC[C@@]56CCCN5C[C@H](F)C6)nc4c3F)c12 [Compound 58]	Avi-KRAS G12D (1-169) GppNHp/RAF1 RBD-3xFLAG (52-151) (Homo sapiens, UniProt P01116, G12D)	100 to 1000 nM
N#Cc1c(N)sc2c(F)ccc(-c3c(C(F)(F)F)cc4c(N5CC(CO)C5)nc(OC[C@@]56CCCN5C[C@H](F)C6)nc4c3F)c12 [Compound 129]	Avi-KRAS G12D (1-169) GppNHp/RAF1 RBD-3xFLAG (52-151) (Homo sapiens, UniProt P01116, G12D)	100 to 1000 nM
C[C@@H]1CN(c2nc(OC[C@@]34CCCN3C[C@H](F)C4)nc3c(F)c(-c4ccc(F)c5sc(N)c(C#N)c45)c(C(F)(F)F)cc23)C[C@@H](C)O1 [Compound 144]	Avi-KRAS G12D (1-169) GppNHp/RAF1 RBD-3xFLAG (52-151) (Homo sapiens, UniProt P01116, G12D)	100 to 1000 nM
C[C@@H]1COCCN1c1nc(OC[C@@]23CCCN2C[C@H](F)C3)nc2c(F)c(-c3ccc(F)c4sc(N)c(C#N)c34)c(C(F)(F)F)cc12 [Compound 134]	Avi-KRAS G12D (1-169) GppNHp/RAF1 RBD-3xFLAG (52-151) (Homo sapiens, UniProt P01116, G12D)	100 to 1000 nM
Nc1nc2c(-c3c(C(F)(F)F)cc4c(N[C@H]5CCC[C@@H](O)C5)nc(OCC56CCCN5CCC6)nc4c3F)ccc(F)c2s1 (atropisomer, axis not shown) [Compound 67]	Avi-KRAS G12D (1-169) GppNHp/RAF1 RBD-3xFLAG (52-151) (Homo sapiens, UniProt P01116, G12D)	1000 to 10000 nM
CC(C)C(=O)N1CC[C@@H](N(C)c2nc(OC[C@@]34CCCN3C[C@H](F)C4)nc3c(F)c(-c4ccc(F)c5sc(N)c(C#N)c45)c(C(F)(F)F)cc23)[C@H]1C [Compound 261]	Avi-KRAS G12D (1-169) GppNHp/RAF1 RBD-3xFLAG (52-151) (Homo sapiens, UniProt P01116, G12D)	100 to 1000 nM
CC(=O)N1C[C@H]2CCN(c3nc(OC[C@@]45CCCN4C[C@H](F)C5)nc4c(F)c(-c5ccc(F)c6sc(N)c(C#N)c56)c(C(F)(F)F)cc34)[C@H]2C1 [Compound 210]	Avi-KRAS G12D (1-169) GppNHp/RAF1 RBD-3xFLAG (52-151) (Homo sapiens, UniProt P01116, G12D)	1000 to 10000 nM
N#Cc1c(N)sc2c(F)ccc(-c3c(C(F)(F)F)cc4c(N5CCC5)nc(OC[C@@]56CCCN5C[C@H](F)C6)nc4c3F)c12 [Compound 212]	Avi-KRAS G12D (1-169) GppNHp/RAF1 RBD-3xFLAG (52-151) (Homo sapiens, UniProt P01116, G12D)	100 to 1000 nM
CC(=O)N1CC[C@@H](N(C)c2nc(OC[C@@]34CCCN3C[C@H](F)C4)nc3c(F)c(-c4ccc(F)c5sc(N)c(C#N)c45)c(C(F)(F)F)cc23)C1 [Compound 112]	Avi-KRAS G12D (1-169) GppNHp/RAF1 RBD-3xFLAG (52-151) (Homo sapiens, UniProt P01116, G12D)	100 to 1000 nM
Nc1nc2c(-c3c(C(F)(F)F)cc4c(N[C@H]5CC[C@@H](O)C5)nc(OCC56CCCN5CCC6)nc4c3F)ccc(F)c2s1 (atropisomer, axis not shown) [Compound 60]	Avi-KRAS G12D (1-169) GppNHp/RAF1 RBD-3xFLAG (52-151) (Homo sapiens, UniProt P01116, G12D)	1000 to 10000 nM
CC(=O)N1CC[C@H](N(C)c2nc(OC[C@@]34CCCN3C[C@H](F)C4)nc3c(F)c(-c4ccc(F)c5sc(N)c(C#N)c45)c(C(F)(F)F)cc23)[C@@H]1C (single isomer, unassigned) [Compound 194]	Avi-KRAS G12D (1-169) GppNHp/RAF1 RBD-3xFLAG (52-151) (Homo sapiens, UniProt P01116, G12D)	> 10000 nM
CCN(c1nc(OC[C@@]23CCCN2C[C@H](F)C3)nc2c(F)c(-c3ccc(F)c4sc(N)c(C#N)c34)c(C(F)(F)F)cc12)C1CC1 [Compound 155]	Avi-KRAS G12D (1-169) GppNHp/RAF1 RBD-3xFLAG (52-151) (Homo sapiens, UniProt P01116, G12D)	100 to 1000 nM
N#CCC[C@H]1CCN(c2nc(OC[C@@]34CCCN3C[C@H](F)C4)nc3c(F)c(-c4ccc(F)c5sc(N)c(C#N)c45)c(C(F)(F)F)cc23)C1 [Compound 214]	Avi-KRAS G12D (1-169) GppNHp/RAF1 RBD-3xFLAG (52-151) (Homo sapiens, UniProt P01116, G12D)	1000 to 10000 nM
N#Cc1c(N)sc2c(F)ccc(-c3c(C(F)(F)F)cc4c(N5CC6CC(C5)O6)nc(OC[C@@]56CCCN5C[C@H](F)C6)nc4c3F)c12 [Compound 145]	Avi-KRAS G12D (1-169) GppNHp/RAF1 RBD-3xFLAG (52-151) (Homo sapiens, UniProt P01116, G12D)	100 to 1000 nM
